- Assay: qHTS assay to identify small molecule agonists of the AP-1 signaling pathway - cell viability counter screen (AID 1159525); note: nearly all actives have a fitted effect of over 55% in size
- Details: ME-180 (cervical carcinoma) AP-1-bla cells viability, ATP luminescence, 5 h; series mostly up to 76.8 µM
Inconclusive results are not listed. Calls of active or inactive are those of the source. Calls come from the whole dose curve.

>  <Molecule>
CN(C)CCC=C1c2ccccc2CCc2ccccc21

>  <outcome>
inactive

$$$$
>  <Molecule>
NC=O

>  <outcome>
inactive

$$$$
>  <Molecule>
CCCCCCCCCCCO

>  <outcome>
inactive

$$$$
>  <Molecule>
C#C[C@]1(O)CC[C@H]2[C@@H]3CCc4cc(OC)ccc4[C@H]3CC[C@@]21C

>  <outcome>
inactive

$$$$
>  <Molecule>
Cc1ccc2c(n1)Oc1ccc(C(C)C(=O)OCC(=O)N(C)C)cc1C2 (centres undefined)

>  <outcome>
inactive

$$$$
>  <Molecule>
COc1ccccc1/C=C/C=O

>  <outcome>
inactive

$$$$
>  <Molecule>
O=Cc1ccccc1O

>  <outcome>
inactive

$$$$
>  <Molecule>
CC1=CCC(C(C)(C)O)CC1 (centres undefined)

>  <outcome>
inactive

$$$$
>  <Molecule>
CCCCOCCOCCOCCO

>  <outcome>
inactive

$$$$
>  <Molecule>
C=CC(C)(CCC=C(C)C)OC(C)=O (centres undefined)

>  <outcome>
inactive

$$$$
>  <Molecule>
C=C(C)C1CC=C(C)CC1 (centres undefined)

>  <outcome>
inactive

$$$$
>  <Molecule>
CCOC(=O)C(C#N)=C(c1ccccc1)c1ccccc1

>  <outcome>
inactive

$$$$
>  <Molecule>
Nc1ncnc2nc[nH]c12

>  <outcome>
inactive

$$$$
>  <Molecule>
O=C(COc1ccc(Cl)cc1)N1CCN(Cc2ccc3c(c2)OCO3)CC1

>  <outcome>
inactive

$$$$

###

- Assay: qHTS assay for small molecule agonists of the antioxidant response element (ARE) signaling pathway (AID 743202); for activation: % is set by controls: 0 for no effect and ±100 for the full control effect
- Details: HepG2 ARE-bla reporter, beta-lactamase FRET, 16 h; series mostly up to 73.3 µM
Results filed as inconclusive are left out. Activity calls are given as the source filed them. Calls follow the shape of the dose curve; as a rule, active = well fitted activation curve with a large enough effect in the signal ratio in the repeat runs (not every such curve was filed as active); inconclusive = weak or mixed curves, or effect the other way; inactive = no such curve, though single readings can be large or run the other way; the % refers to the signal ratio.
Outcomes: class 1 for active, class 0 for inactive

>  <Compound>
OC(CCl)CCl

>  <Label Value>
class 0

$$$$
>  <Compound>
COc1cccc2c1C(=O)c1c(O)c3c(c(O)c1C2=O)C[C@@](O)(C(=O)CO)C[C@@H]3O[C@H]1C[C@H](N)[C@H](O)[C@H](C)O1

>  <Label Value>
class 1

$$$$
>  <Compound>
O=C1OC2(c3cc(Br)c(O)c(Br)c3Oc3c2cc(Br)c(O)c3Br)c2c(Cl)c(Cl)c(Cl)c(Cl)c21

>  <Label Value>
class 0

$$$$
>  <Compound>
C=CC(C)(CCC=C(C)C)OC(C)=O (stereo not drawn)

>  <Label Value>
class 0

$$$$
>  <Compound>
C/C=C/C(=O)O

>  <Label Value>
class 0

$$$$
>  <Compound>
CC(=O)O[C@]1(C(C)=O)CC[C@H]2[C@@H]3C=C(Cl)C4=CC(=O)[C@@H]5C[C@@H]5[C@]4(C)[C@H]3CC[C@@]21C

>  <Label Value>
class 1

$$$$
>  <Compound>
COC(=O)Nc1nc2ccc(S(=O)c3ccccc3)cc2[nH]1 (stereo not drawn)

>  <Label Value>
class 0

$$$$
>  <Compound>
OC1CCCCCCCCCCC1

>  <Label Value>
class 0

$$$$

###

- Assay: qHTS assay to identify small molecule antagonists of the progesterone receptor (PR) signaling pathway - cell viability counter screen (AID 1346798); note: nearly all actives have a fitted effect of over 50% in size
- Details: PR-UAS-bla HEK293T viability, CellTiter-Glo luminescence, 16 h; series mostly up to 92.4 µM
Results filed as inconclusive are left out. The source made the active and inactive calls. The call rests on the fitted dose curve; in most records, active means well fitted cell-killing curve with a large enough effect in the repeat runs; inconclusive means weak or mixed curves, or effect the other way; inactive means no such curve, though single readings can be large or run the other way.
Outcomes: active, inactive

>  <Compound>
OC1CCCCCCCCCCC1

>  <Label Value>
inactive

$$$$
>  <Compound>
CN(C)C(=N)N=C(N)N

>  <Label Value>
inactive

$$$$
>  <Compound>
c1ccc2cc(Nc3ccc(Nc4ccc5ccccc5c4)cc3)ccc2c1

>  <Label Value>
inactive

$$$$
>  <Compound>
CC(CCC(=O)O)(c1ccc(O)cc1)c1ccc(O)cc1

>  <Label Value>
inactive

$$$$
>  <Compound>
C#C[C@]1(O)CC[C@H]2[C@@H]3CCC4=Cc5oncc5C[C@]4(C)[C@H]3CC[C@@]21C

>  <Label Value>
active

$$$$
>  <Compound>
COc1ccc(OC)c(C(O)CNC(=O)CN)c1 (stereo not drawn)

>  <Label Value>
inactive

$$$$
>  <Compound>
O=CCCCC=O

>  <Label Value>
inactive

$$$$
>  <Compound>
Cc1cccc(N(C)C(=S)Oc2ccc3ccccc3c2)c1

>  <Label Value>
inactive

$$$$
>  <Compound>
C=CC(C)(CCC=C(C)C)OC(C)=O (stereo not drawn)

>  <Label Value>
inactive

$$$$
>  <Compound>
CCCCNS(=O)(=O)c1ccccc1

>  <Label Value>
inactive

$$$$
>  <Compound>
CC(=O)C1(C)CC2=C(CCCC2(C)C)CC1C (stereo not drawn)

>  <Label Value>
inactive

$$$$
>  <Compound>
O=C1OC2(c3cc(Br)c(O)c(Br)c3Oc3c2cc(Br)c(O)c3Br)c2c(Cl)c(Cl)c(Cl)c(Cl)c21

>  <Label Value>
inactive

$$$$
>  <Compound>
COC(=O)c1ccccc1

>  <Label Value>
inactive

$$$$
>  <Compound>
COc1ccc(C(=O)CC(=O)c2ccc(C(C)(C)C)cc2)cc1

>  <Label Value>
inactive

$$$$
>  <Compound>
O=C(/C=C/C=C/c1ccc2c(c1)OCO2)N1CCCCC1

>  <Label Value>
inactive

$$$$
>  <Compound>
C=C(C)C(=O)OCCOC(=O)C(=C)C

>  <Label Value>
inactive

$$$$
>  <Compound>
CC(=O)CC/C=C(\C)CCC=C(C)C

>  <Label Value>
inactive

$$$$
>  <Compound>
CC1=CC2C3CC(C=C3C)C2C1 (stereo not drawn)

>  <Label Value>
inactive

$$$$
>  <Compound>
Clc1nc(Cl)c(Cl)c(Cl)c1Cl

>  <Label Value>
inactive

$$$$
>  <Compound>
CCC(C)c1ccccc1O (stereo not drawn)

>  <Label Value>
inactive

$$$$
>  <Compound>
Nc1ncnc2nc[nH]c12

>  <Label Value>
inactive

$$$$
>  <Compound>
OCCO

>  <Label Value>
inactive

$$$$
>  <Compound>
O=C(COc1ccc(Cl)cc1)N1CCN(Cc2ccc3c(c2)OCO3)CC1

>  <Label Value>
inactive

$$$$
>  <Compound>
c1cc(-c2ccncc2)ccn1

>  <Label Value>
inactive

$$$$
>  <Compound>
CCOCCOCCO

>  <Label Value>
inactive

$$$$
>  <Compound>
O=C1c2cccc(O)c2C(=O)c2c(O)cccc21

>  <Label Value>
inactive

$$$$
>  <Compound>
CC(=O)O[C@]1(C(C)=O)CC[C@H]2[C@@H]3C=C(Cl)C4=CC(=O)[C@@H]5C[C@@H]5[C@]4(C)[C@H]3CC[C@@]21C

>  <Label Value>
inactive

$$$$
>  <Compound>
Cc1cccc(C(=O)O)c1

>  <Label Value>
inactive

$$$$

###

- Assay: qHTS assay for identifying genotoxic compounds that show differential cytotoxicity against isogenic chicken DT40 cell lines with known DNA damage response pathways - Rev3 mutant cell line (AID 743014); note: nearly all actives have a fitted effect of over 55% in size
- Details: chicken DT40 Rev3-/- viability, CellTiter-Glo, 40 h; series mostly up to 68.4 µM
- Excerpt: National Center for Advancing Translational Sciences [NCATS] NIH Chemical Genomics Center [NCGC] U.S. Environmental Protection Agency [EPA] National Institutes of Environmental Health Sciences [NIEHS] National Toxicology Program [NTP] U.S. Food and Drug Administration [FDA] DNA repair pathways play a critical role in cellular homeostasis by repairing DNA damage induced by endogenous processes and xenobiotics. […]
Inconclusive results are not listed. Calls of active or inactive are those of the source. Calls follow the shape of the dose curve; as a rule, active = well fitted cell-killing curve with a large enough effect in the repeat runs; inconclusive = weak or mixed curves, or effect the other way; inactive = no such curve, though single readings can be large or run the other way.
Outcomes: active, inactive

>  <Compound>
CC(=O)C1(C)CC2=C(CCCC2(C)C)CC1C (configuration not stated)

>  <Label Value>
inactive

$$$$
>  <Compound>
O=C(O)c1ccccc1Nc1cccc(C(F)(F)F)c1

>  <Label Value>
active

$$$$
>  <Compound>
CCC(C)CO (configuration not stated)

>  <Label Value>
inactive

$$$$
>  <Compound>
C[Si](C)(C)O[Si](C)(C)C

>  <Label Value>
inactive

$$$$
>  <Compound>
O=C1OC2(c3cc(Br)c(O)c(Br)c3Oc3c2cc(Br)c(O)c3Br)c2c(Cl)c(Cl)c(Cl)c(Cl)c21

>  <Label Value>
inactive

$$$$
>  <Compound>
CCCC(=O)O

>  <Label Value>
inactive

$$$$
>  <Compound>
CN(C)c1nc(N(C)C)nc(N(C)C)n1

>  <Label Value>
inactive

$$$$
>  <Compound>
Cc1ccc2c(n1)Oc1ccc(C(C)C(=O)OCC(=O)N(C)C)cc1C2 (configuration not stated)

>  <Label Value>
inactive

$$$$
>  <Compound>
c1ccc2c(c1)Oc1ccccc1S2

>  <Label Value>
inactive

$$$$
>  <Compound>
CCCCC(CC)COP(=O)(OCC(CC)CCCC)OCC(CC)CCCC (configuration not stated)

>  <Label Value>
inactive

$$$$
>  <Compound>
CN(C)CCN(Cc1cccs1)c1ccccn1

>  <Label Value>
inactive

$$$$
>  <Compound>
Cc1cc2nc3c(=O)[nH]c(=O)nc-3n(C[C@H](O)[C@H](O)[C@H](O)CO)c2cc1C

>  <Label Value>
inactive

$$$$
>  <Compound>
CN1C(C(=O)Nc2ccccn2)=C(O)c2ccccc2S1(=O)=O

>  <Label Value>
inactive

$$$$
>  <Compound>
c1ccc2c(c1)c1cccc3ccc4cccc2c4c31

>  <Label Value>
inactive

$$$$
>  <Compound>
Nc1ccc(S(=O)(=O)Nc2cnc3ccccc3n2)cc1

>  <Label Value>
inactive

$$$$
>  <Compound>
OC[C@H]1O[C@@H]2O[C@H]3[C@H](O)[C@@H](O)[C@@H](O[C@H]4[C@H](O)[C@@H](O)[C@@H](O[C@H]5[C@H](O)[C@@H](O)[C@@H](O[C@H]6[C@H](O)[C@@H](O)[C@@H](O[C@H]7[C@H](O)[C@@H](O)[C@@H](O[C@H]8[C@H](O)[C@@H](O)[C@@H](O[C@H]1[C@H](O)[C@H]2O)O[C@@H]8CO)O[C@@H]7CO)O[C@@H]6CO)O[C@@H]5CO)O[C@@H]4CO)O[C@@H]3CO

>  <Label Value>
inactive

$$$$
>  <Compound>
Cc1[nH]c(=O)c(C#N)cc1-c1ccncc1

>  <Label Value>
inactive

$$$$
>  <Compound>
CC(C)OB(OC(C)C)OC(C)C

>  <Label Value>
inactive

$$$$
>  <Compound>
Cc1cccc([N+](=O)[O-])c1C

>  <Label Value>
inactive

$$$$
>  <Compound>
O=C(/C=C/C=C/c1ccc2c(c1)OCO2)N1CCCCC1

>  <Label Value>
active

$$$$
>  <Compound>
COC(=O)CCC(=O)OC

>  <Label Value>
inactive

$$$$
>  <Compound>
O=c1oc(=O)c2cc3c(=O)oc(=O)c3cc12

>  <Label Value>
inactive

$$$$
